Tested on: K562
assay.notes: NCI tumour cell line growth inhibition, 48 h
Active and inactive are the calls of the source. Cut-off read from the data, not from the text of the source: active = GI50 up to about 1.1 µM and inactive = higher.
So I've got a bunch of compounds here, and I need their GI50 values.

Task item: API: value(readout=GI50, system=K562) for record `Cc1cc(C)nc(NS(=O)(=O)c2ccc(NC(=O)c3cccc4c(NNc5ccc(S(=O)(=O)N=C(N)N)cc5)c5ccccc5nc34)cc2)n1`
Reply: > 50 µM (inactive)

Task item: API: value(readout=GI50, system=K562) for record `Clc1ccc(-c2cc(-c3nc4ccccc4[nH]3)no2)cc1`
Reply: 19.8 µM (inactive)

Task item: API: value(readout=GI50, system=K562) for record C[C@@H]1OC(=O)C[C@H]2CC(=O)N(CCC3CN(S(=O)(=O)C(F)(F)F)c4ccccc43)C[C@@H]21 (some centres undefined)
Reply: > 100 µM (inactive)

Task item: API: value(readout=GI50, system=K562) for record `CCOC(=O)c1ccc(NC(=O)O/N=C(/Cl)C(C)C)cc1`
Reply: 1.56 µM (inactive)
